Form: system (UniProt:Q9GZT9), quantity (IC50), values below.
OUTCOME_MEASURE: IC50 (µM)

Illustrative cases are given below, each with its answer.
CC(C)(C)c1ccc(OCCn2ncc3nc(-n4cc(C(=O)O)cn4)nc(O)c32)cc1    0.019
Cc1nn([C@@H](C)c2cc(F)ccc2F)c2c(O)nc(-n3cc(C(=O)O)cn3)nc12    0.25
CC[C@H]1CC[C@H](Cn2ncc3nc(-n4cc(C(=O)O)cn4)nc(O)c32)CC1    0.014
CCCC(CCC)n1ncc2nc(-n3cc(C(=O)O)cn3)nc(O)c21    0.059
C[C@H](C1CCCCC1)n1ncc2nc(-n3cc(C(=O)O)cn3)nc(O)c21    0.03
Cc1cc(-c2ccccc2F)ccc1Cn1ncc2nc(-n3cc(C(=O)O)cn3)nc(O)c21    0.0086

P = Cc1nn(CC2CCC(F)(F)CC2)c2c(O)nc(-n3cc(C(=O)O)cn3)nc12
Q = CCc1ccccc1-c1ccc(Cn2ncc3nc(-n4cc(C(=O)O)cn4)nc(O)c32)cc1
Which has the higher IC50, P or Q ? Mark your selection by writing its label.
P

a = Cc1ccc(C(F)(F)F)cc1[C@@H](C)n1ncc2nc(-n3cc(C(=O)O)cn3)nc(O)c21
b = C[C@@H](c1cccc(C(F)(F)F)c1)n1ncc2nc(-n3cc(C(=O)O)cn3)nc(O)c21
Which has the higher IC50, a or b ? Mark your selection by writing its label.
a
(a: 0.076 µM, b: 0.038 µM)

P = O=C(O)c1cnn(-c2nc(O)c3c(n2)c(C2CC2)nn3CC2CCCCC2)c1
Q = C[C@@H](c1c(F)cccc1F)n1ncc2nc(-n3cc(C(=O)O)cn3)nc(O)c21
Which has the higher IC50, P or Q ? Mark your selection by writing its label.
Q
(Q: 0.16 µM, P: 0.091 µM)

a = O=C(O)c1cnn(-c2nc(O)c3c(cnn3CC3CCC(F)(F)CC3)n2)c1
b = Cc1nn(C[C@H]2CC[C@H](C(F)(F)F)CC2)c2c(O)nc(-n3cc(C(=O)O)cn3)nc12
Which has the higher IC50, a or b ? Mark your selection by writing its label.
b
(b: 0.03 µM, a: 0.015 µM)

A = O=C(O)c1cnn(-c2nc(O)c3c(cnn3Cc3ccc4ccccc4c3)n2)c1
B = O=C(O)c1cnn(-c2nc(O)c3c(cnn3C[C@H]3CCN(c4cccc(C(F)(F)F)c4)C3)n2)c1
# query: argmin of IC50 over A and B Mark your selection by writing its label.
B

###

Form: system (human HIF-PHD2 (Homo sapiens, UniProt Q9GZT9)), quantity (pIC50), values below.
pIC50: −log10 of the molar value.
OUTCOME_MEASURE: pIC50

O=C(O)c1cnn(-c2nc(O)c3c(cnn3CCOc3ccc4ccccc4c3)n2)c1 [Example 207]    7.89
O=C(O)c1cnn(-c2nc(O)c3c(cnn3CCCOc3cccc4ccccc34)n2)c1 [Example 192]    7.55
CC(C)(Cn1ncc2nc(-n3cc(C(=O)O)cn3)nc(O)c21)Oc1ccc(Cl)cc1 [Example 210]    7.68
COc1ccccc1-c1ccc(Cn2ncc3nc(-n4cc(C(=O)O)cn4)nc(O)c32)cc1OC [Example 99]    7.43

a = CC1(C)CCCC1n1ncc2nc(-n3cc(C(=O)O)cn3)nc(O)c21 (single isomer, unassigned) [Example 418]
b = Cc1nn(Cc2ccc(-c3ccccc3)cc2)c2c(O)nc(-n3cc(C(=O)O)cn3)nc12 [Example 228]
c = O=C(O)c1cnn(-c2nc(O)c3c(cnn3Cc3ccc(-c4ccc(F)cc4)cc3)n2)c1 [Example 66]
d = CCC1CCCC(n2ncc3nc(-n4cc(C(=O)O)cn4)nc(O)c32)C1 (stereo not shown) [Example 413]
e = O=C(O)c1cnn(-c2nc(O)c3c(cnn3Cc3ccccc3-c3ccccc3)n2)c1 [Example 38]
# rank by pIC50, ascending (min first) Output spec: a listing of the labels in the requested order.
e, a, d, c, b
